Test system: LG0703-F948-PDC complex spheroid viability
Assay Remarks: Anticancer human tumor LG0703-F948-PDC patient-derived lung adenocarcinoma cell line growth inhibition
Experimental Setup: second compound 10 µM; first compound 0.0316 µM; stronger effect = lower value
# condition met = viability, T/C below 90% (exclusive); condition not met = viability, T/C at/above 90%

CC1COCCN1c1cc(-c2ccnn2C)c2ccnc(-c3ccn[nH]3)c2n1 (stereo unspecified) + NC1CC1c1ccc(-c2cccc(O)c2)cc1 :: condition met
CC1(C)CCC(CN2CCN(c3ccc(C(=O)NS(=O)(=O)c4ccc(NCC5CCOCC5)c([N+](=O)[O-])c4)c(Oc4cnc5[nH]ccc5c4)c3)CC2)=C(c2ccc(Cl)cc2)C1 + NC1CC1c1ccc(-c2cccc(O)c2)cc1 :: condition not met
O=C(c1cc(Cc2n[nH]c(=O)c3ccccc23)ccc1F)N1CCN(C(=O)C2CC2)CC1 + NC1CC1c1ccc(-c2cccc(O)c2)cc1 :: condition not met
CC1(C)CCC(CN2CCN(c3ccc(C(=O)NS(=O)(=O)c4ccc(NCC5CCOCC5)c([N+](=O)[O-])c4)c(Oc4cnc5[nH]ccc5c4)c3)CC2)=C(c2ccc(Cl)cc2)C1 + NC1CCC(NC2CC2c2ccccc2)CC1 :: condition not met
COc1cc(Nc2ncc3c(n2)-c2ccc(Cl)cc2C(c2c(F)cccc2OC)=NC3)ccc1C(=O)O + NC1CC1c1ccc(-c2cccc(O)c2)cc1 :: condition not met
CC(C)CC(NC(=O)CNC(=O)c1cc(Cl)ccc1Cl)B1OC(=O)CC(CC(=O)O)(C(=O)O)O1 (stereo unspecified) + NC1CCC(NC2CC2c2ccccc2)CC1 :: condition met
CC[C@@]1(O)C(=O)OCc2c1cc1n(c2=O)Cc2cc3c(CN(C)C)c(O)ccc3nc2-1 + NC1CCC(NC2CC2c2ccccc2)CC1 :: condition not met
CC[C@@]1(O)C(=O)OCc2c1cc1n(c2=O)Cc2cc3c(CN(C)C)c(O)ccc3nc2-1 + NC1CC1c1ccc(-c2cccc(O)c2)cc1 :: condition met
O=C(C=Cn1cnc(-c2cc(C(F)(F)F)cc(C(F)(F)F)c2)n1)NNc1cnccn1 + NC1CCC(NC2CC2c2ccccc2)CC1 :: condition met
Nc1ncn(C2CC(O)C(CO)O2)c(=O)n1 (stereo unspecified) + NC1CCC(NC2CC2c2ccccc2)CC1 :: condition not met
Nc1ncn(C2CC(O)C(CO)O2)c(=O)n1 (stereo unspecified) + NC1CC1c1ccc(-c2cccc(O)c2)cc1 :: condition not met

----------
Test system: LG0703-F948-PDC complex spheroid viability
Assay Remarks: Anticancer human tumor LG0703-F948-PDC cell line growth inhibition;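 also: spheroids exposed to agents for seven days before readout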;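 as to viability, T/C: 100% = DMSO vehicle control wells as normalization base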
Experimental Setup: second compound 1 µM; first compound 0.0316 µM; stronger effect = lower value
Measured Attribute: viability, T/C

CC[C@@]1(O)C(=O)OCc2c1cc1n(c2=O)Cc2cc3c(CN(C)C)c(O)ccc3nc2-1 + NC1CC1c1ccc(-c2cccc(O)c2)cc1 :: 67.1%
CC1COCCN1c1cc(-c2ccnn2C)c2ccnc(-c3ccn[nH]3)c2n1 (stereo not given) + NC1CCC(NC2CC2c2ccccc2)CC1 :: 60.2%
CC(C)c1c(-c2ccccc2)nc2c(C#N)c[nH]n2c1=O + NC1CCC(NC2CC2c2ccccc2)CC1 :: 110%
CC(C)CC(NC(=O)C(Cc1ccccc1)NC(=O)c1cnccn1)B(O)O (stereo not given) + NC1CC1c1ccc(-c2cccc(O)c2)cc1 :: 0.95%
Nc1ncn(C2CC(O)C(CO)O2)c(=O)n1 (stereo not given) + NC1CC1c1ccc(-c2cccc(O)c2)cc1 :: 104%
Nc1ncn(C2CC(O)C(CO)O2)c(=O)n1 (stereo not given) + NC1CCC(NC2CC2c2ccccc2)CC1 :: 130%
Cn1ncnc1C1c2n[nH]c(=O)c3cc(F)cc(c23)NC1c1ccc(F)cc1 (stereo not given) + NC1CC1c1ccc(-c2cccc(O)c2)cc1 :: 111%
CC(C)CC(NC(=O)C(Cc1ccccc1)NC(=O)c1cnccn1)B(O)O (stereo not given) + NC1CCC(NC2CC2c2ccccc2)CC1 :: 0.02%
CC(C)CC(NC(=O)CNC(=O)c1cc(Cl)ccc1Cl)B1OC(=O)CC(CC(=O)O)(C(=O)O)O1 (stereo not given) + NC1CCC(NC2CC2c2ccccc2)CC1 :: 2.68%
CC1COCCN1c1cc(-c2ccnn2C)c2ccnc(-c3ccn[nH]3)c2n1 (stereo not given) + NC1CC1c1ccc(-c2cccc(O)c2)cc1 :: 64.1%
Cn1ncnc1C1c2n[nH]c(=O)c3cc(F)cc(c23)NC1c1ccc(F)cc1 (stereo not given) + NC1CCC(NC2CC2c2ccccc2)CC1 :: 115%
CC1(C)CCC(CN2CCN(c3ccc(C(=O)NS(=O)(=O)c4ccc(NCC5CCOCC5)c([N+](=O)[O-])c4)c(Oc4cnc5[nH]ccc5c4)c3)CC2)=C(c2ccc(Cl)cc2)C1 + NC1CC1c1ccc(-c2cccc(O)c2)cc1 :: 106%
COc1ccc([C@@H](O)c2cc(-c3ncnc4cc(N5CCOCC5)ccc34)c(F)cc2Cl)nn1 + NC1CC1c1ccc(-c2cccc(O)c2)cc1 :: 98.8%
CC1(C)CCC(CN2CCN(c3ccc(C(=O)NS(=O)(=O)c4ccc(NCC5CCOCC5)c([N+](=O)[O-])c4)c(Oc4cnc5[nH]ccc5c4)c3)CC2)=C(c2ccc(Cl)cc2)C1 + NC1CCC(NC2CC2c2ccccc2)CC1 :: 100%
O=C(c1cc(Cc2n[nH]c(=O)c3ccccc23)ccc1F)N1CCN(C(=O)C2CC2)CC1 + NC1CC1c1ccc(-c2cccc(O)c2)cc1 :: 102%

----------
Tested on: LG0703-F948-PDC complex spheroid viability
Assay Remarks: Anticancer human tumor LG0703-F948-PDC cell line growth inhibition;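 also: spheroids exposed to agents for seven days before readout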;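 as to viability, T/C: 100% = DMSO vehicle control wells as normalization base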
Experimental Setup: second compound 10 µM; first compound 0.0316 µM; stronger effect = lower value
Measured Attribute: viability, T/C (%)

COc1ccc([C@@H](O)c2cc(-c3ncnc4cc(N5CCOCC5)ccc34)c(F)cc2Cl)nn1 + NC1CC1c1ccc(-c2cccc(O)c2)cc1 :: 108
COc1ccc([C@@H](O)c2cc(-c3ncnc4cc(N5CCOCC5)ccc34)c(F)cc2Cl)nn1 + NC1CCC(NC2CC2c2ccccc2)CC1 :: 118
Cn1ncnc1C1c2n[nH]c(=O)c3cc(F)cc(c23)NC1c1ccc(F)cc1 (centres undefined) + NC1CCC(NC2CC2c2ccccc2)CC1 :: 111
CC(C)c1c(-c2ccccc2)nc2c(C#N)c[nH]n2c1=O + NC1CCC(NC2CC2c2ccccc2)CC1 :: 110

----------
System: LG0703-F948-PDC complex spheroid viability
Assay Remarks: Anticancer human tumor LG0703-F948-PDC cell line growth inhibition;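 also: spheroids exposed to agents for seven days before readout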
Experimental Setup: curve of first compound; second compound 0.1 µM
pIC50: −log10 of the molar value.
Items are presented alongside their recorded pIC50.
Measured Attribute: pIC50

CC1COCCN1c1cc(C2(S(C)(=N)=O)CC2)nc(-c2ccnc3[nH]ccc23)n1 (configuration not stated) + NC1CC1c1ccc(-c2cccc(O)c2)cc1 :: 5.30
Nc1ccccc1NC(=O)c1ccc(CNC(=O)OCc2cccnc2)cc1 + NC1CC1c1ccc(-c2cccc(O)c2)cc1 :: 7.02
Nc1ccccc1NC(=O)c1ccc(CNC(=O)OCc2cccnc2)cc1 + NC1CCC(NC2CC2c2ccccc2)CC1 :: 6.93
COc1ccc([C@@H](O)c2cc(-c3ncnc4cc(N5CCOCC5)ccc34)c(F)cc2Cl)nn1 + NC1CC1c1ccc(-c2cccc(O)c2)cc1 :: 5.82
CC(C)CC(NC(=O)CNC(=O)c1cc(Cl)ccc1Cl)B1OC(=O)CC(CC(=O)O)(C(=O)O)O1 (configuration not stated) + NC1CCC(NC2CC2c2ccccc2)CC1 :: 8.34

----------
Test system: LG0703-F948-PDC complex spheroid viability
Assay Remarks: Anticancer human tumor LG0703-F948-PDC cell line growth inhibition;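 also: spheroids exposed to agents for seven days before readout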;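 as to viability, T/C: 100% = DMSO vehicle control wells as normalization base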
Experimental Setup: second compound 1 µM; first compound 0.316 µM; stronger effect = lower value
# condition met = viability, T/C below 30% (exclusive); condition not met = viability, T/C at/above 30%

CC(C)c1c(-c2ccccc2)nc2c(C#N)c[nH]n2c1=O + NC1CCC(NC2CC2c2ccccc2)CC1 :: condition not met
COc1cc(Nc2ncc3c(n2)-c2ccc(Cl)cc2C(c2c(F)cccc2OC)=NC3)ccc1C(=O)O + NC1CCC(NC2CC2c2ccccc2)CC1 :: condition not met
CC1COCCN1c1cc(-c2ccnn2C)c2ccnc(-c3ccn[nH]3)c2n1 (stereo unspecified) + NC1CCC(NC2CC2c2ccccc2)CC1 :: condition met
COc1cc(Nc2ncc3c(n2)-c2ccc(Cl)cc2C(c2c(F)cccc2OC)=NC3)ccc1C(=O)O + NC1CC1c1ccc(-c2cccc(O)c2)cc1 :: condition not met
CC1(C)CCC(CN2CCN(c3ccc(C(=O)NS(=O)(=O)c4ccc(NCC5CCOCC5)c([N+](=O)[O-])c4)c(Oc4cnc5[nH]ccc5c4)c3)CC2)=C(c2ccc(Cl)cc2)C1 + NC1CCC(NC2CC2c2ccccc2)CC1 :: condition not met

----------
System: LG0703-F948-PDC complex spheroid viability
Assay Remarks: Anticancer human tumor LG0703-F948-PDC cell line growth inhibition;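 also: spheroids exposed to agents for seven days before readout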;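 as to viability, T/C: 100% = DMSO vehicle control wells as normalization base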
Experimental Setup: second compound 0.316 µM; first compound 0.1 µM; stronger effect = lower value
Measured Attribute: viability, T/C (%)

O=C(c1cc(Cc2n[nH]c(=O)c3ccccc23)ccc1F)N1CCN(C(=O)C2CC2)CC1 + NC1CCC(NC2CC2c2ccccc2)CC1 :: 117
CC1COCCN1c1cc(-c2ccnn2C)c2ccnc(-c3ccn[nH]3)c2n1 (centres undefined) + NC1CCC(NC2CC2c2ccccc2)CC1 :: 36.2
CC1(C)CCC(CN2CCN(c3ccc(C(=O)NS(=O)(=O)c4ccc(NCC5CCOCC5)c([N+](=O)[O-])c4)c(Oc4cnc5[nH]ccc5c4)c3)CC2)=C(c2ccc(Cl)cc2)C1 + NC1CC1c1ccc(-c2cccc(O)c2)cc1 :: 103
COc1cc(Nc2ncc3c(n2)-c2ccc(Cl)cc2C(c2c(F)cccc2OC)=NC3)ccc1C(=O)O + NC1CC1c1ccc(-c2cccc(O)c2)cc1 :: 67.6
CC1COCCN1c1cc(C2(S(C)(=N)=O)CC2)nc(-c2ccnc3[nH]ccc23)n1 (centres undefined) + NC1CC1c1ccc(-c2cccc(O)c2)cc1 :: 101
CC(C)c1c(-c2ccccc2)nc2c(C#N)c[nH]n2c1=O + NC1CC1c1ccc(-c2cccc(O)c2)cc1 :: 106
CC[C@@]1(O)C(=O)OCc2c1cc1n(c2=O)Cc2cc3c(CN(C)C)c(O)ccc3nc2-1 + NC1CC1c1ccc(-c2cccc(O)c2)cc1 :: 55.3
COc1ccc([C@@H](O)c2cc(-c3ncnc4cc(N5CCOCC5)ccc34)c(F)cc2Cl)nn1 + NC1CCC(NC2CC2c2ccccc2)CC1 :: 110
O=C(c1cc(Cc2n[nH]c(=O)c3ccccc23)ccc1F)N1CCN(C(=O)C2CC2)CC1 + NC1CC1c1ccc(-c2cccc(O)c2)cc1 :: 111
CC(C)CC(NC(=O)C(Cc1ccccc1)NC(=O)c1cnccn1)B(O)O (centres undefined) + NC1CC1c1ccc(-c2cccc(O)c2)cc1 :: 0.14
Nc1ncn(C2CC(O)C(CO)O2)c(=O)n1 (centres undefined) + NC1CCC(NC2CC2c2ccccc2)CC1 :: 98.7
COc1ccc([C@@H](O)c2cc(-c3ncnc4cc(N5CCOCC5)ccc34)c(F)cc2Cl)nn1 + NC1CC1c1ccc(-c2cccc(O)c2)cc1 :: 98.2
Cn1ncnc1C1c2n[nH]c(=O)c3cc(F)cc(c23)NC1c1ccc(F)cc1 (centres undefined) + NC1CCC(NC2CC2c2ccccc2)CC1 :: 96.9
Cn1ncnc1C1c2n[nH]c(=O)c3cc(F)cc(c23)NC1c1ccc(F)cc1 (centres undefined) + NC1CC1c1ccc(-c2cccc(O)c2)cc1 :: 105
